This collection of values is drawn from PubChem BioAssay (NCI).

System: RPMI-8226 leukemia
Experiment: NCI-60 one-dose screen, 48 h
Settings: 10 µM unless noted
This is part of a sample that, as a whole, favours compounds with a hit. Of some 83,000 tested, about 20% had one in any assay. The source made the active and inactive calls. The calls were made as follows: active = growth percent below 10; inactive = the rest.
Possible outcomes: T for active, F for inactive

[[record]]
compound = "O=C1NC(=Nc2ccc(O)cc2)S/C1=C\\c1cccs1"
label_class = "T"

[[record]]
compound = "COc1cc(C2=NN(C(C)=O)C(c3ccc(N(C)C)cc3)C2)cc(OC)c1OC (stereo not drawn)"
label_class = "F"

[[record]]
compound = "O=C(/C=C/C12c3ccccc3C(c3ccccc31)C1C(=O)NC(=O)C12)c1ccccn1 (stereo not drawn)"
label_class = "T"

[[record]]
compound = "COc1ccc2c(c1)c(-c1nonc1-c1cn(C)c3ccc(OC)cc13)cn2C"
label_class = "F"

[[record]]
compound = "CCNC(=O)Oc1ccc(/C(=C(/C)Cc2ccc(OC)cc2)c2ccc(OCCN3CCCCCC3)cc2)cc1"
label_class = "F"

[[record]]
compound = "C#Cc1cccc(Oc2ccc(NC(=O)CCl)cc2)c1"
label_class = "F"

[[record]]
compound = "CCOC(=O)c1c(C)nc2c(c1N)CC(=O)N2Cc1cc(OC)c(OC)c(OC)c1"
label_class = "F"

[[record]]
compound = "Clc1nn2c(Cn3cnc4c(NCc5ccccc5)ncnc43)nnc2c2ccccc12"
label_class = "F"

[[record]]
compound = "CS(=O)(=O)Nc1cncc(-c2ccc3ncnc(Nc4ccc(F)c(Cl)c4)c3c2)c1"
label_class = "F"

[[record]]
compound = "O=C(c1ccc(F)c(Cl)c1)N1c2ccccc2Sc2ccccc21"
label_class = "F"

[[record]]
compound = "O=C(CSc1nc2ccc([N+](=O)[O-])cc2[nH]1)Nc1ccc(Br)cc1"
label_class = "T"

[[record]]
compound = "Cc1ccccc1CNc1c2ccccc2nc2ccccc12"
label_class = "T"

[[record]]
compound = "CC(C)(CO)N(CCO)CCO"
label_class = "F"

[[record]]
compound = "COc1cc(Nc2ncccc2NC(=O)c2cn(Cc3cccc(Oc4ccccc4)c3)nn2)cc(OC)c1"
label_class = "F"

[[record]]
compound = "COc1ccc(Cc2nnc(Nc3nc4ccccc4s3)s2)cc1"
label_class = "F"

[[record]]
compound = "Cc1cscc(C)c1=S"
label_class = "F"

[[record]]
compound = "COc1ccc2cc(Cn3cc[n+](Cc4ccc5ccccc5c4)c3)ccc2c1"
label_class = "T"

[[record]]
compound = "C(/C=C/c1ccccc1)=Nc1ccc(CCc2ccc(N=C/C=C/c3ccccc3)cc2)cc1"
label_class = "F"

[[record]]
compound = "CCN(CC)CCOc1ccc(Nc2ncc3cc(-c4ccc(O)cc4)c(=O)n(C)c3n2)cc1"
label_class = "F"

[[record]]
compound = "CC/C=C1/C(=O)C=C[C@@H]1C/C=C\\CCCC(=O)OC"
label_class = "T"

[[record]]
compound = "Cc1[nH]c(/C=C/C(=O)c2ccc(C(F)(F)F)c(F)c2)c(C)c1C(=O)NCC(C)C"
label_class = "F"

[[record]]
compound = "Cc1nn(-c2ccccc2)c(N2CCCCC2)c1/C=N/NC(=O)Cn1c(=O)sc2ccccc21"
label_class = "F"

[[record]]
compound = "Cn1cc(C(=O)c2nc(-c3c[nH]c4ccc(Br)cc34)no2)c2cc(Br)ccc21"
label_class = "F"

[[record]]
compound = "O=C(N=Nc1c(O)[nH]c2ccccc12)Nc1ccc(Cl)cc1"
label_class = "F"

[[record]]
compound = "Cc1ccc(-c2cc(C(=O)N3N=C(c4ccc(N)cc4)CC3c3ccc(Cl)cc3)c3ccccc3n2)cc1 (stereo not drawn)"
label_class = "F"

[[record]]
compound = "Cc1c2ccccc2nc2c1ccc1cccnc12"
label_class = "F"

[[record]]
compound = "COC(=O)C1=C(C(=O)Nc2cccnc2)C2OC1(C(Cc1ccccc1)Oc1ccccc1)C1OC21 (stereo not drawn)"
label_class = "T"

[[record]]
compound = "CN(C)c1ccc(/C=C/C(=O)c2ccccc2)cc1"
label_class = "F"

[[record]]
compound = "O=C1Nc2ccccc2C2c3cccn3-c3ccccc3N12 (stereo not drawn)"
label_class = "F"

[[record]]
compound = "COc1ccc(C2=NN(C(=O)c3cc(OC)c(OC)c(OC)c3)C(c3ccc(N(C)C)cc3)C2)cc1 (stereo not drawn)"
label_class = "T"

[[record]]
compound = "COc1cc2cc(Oc3ccc(NC(=O)Nc4ccccc4)cc3)c(C)nc2cc1OCCN1CCCCC1"
label_class = "F"

[[record]]
compound = "O=C1c2cc3c(cc2-c2c1c1ccc(Cl)cc1c(=O)n2C[C@H](O)CO)OCO3"
label_class = "T"

[[record]]
compound = "COc1cc(C2Cc3ncccc3-c3[nH]c(=O)c4cccnc4c32)cc(OC)c1OC (stereo not drawn)"
label_class = "F"

[[record]]
compound = "COc1cc2c(c(OC)c1OC)C(=O)CC(c1cccc(NC(=O)c3ccccc3Br)c1)O2 (stereo not drawn)"
label_class = "F"

[[record]]
compound = "Cc1cc(C(=O)Nc2cc(Nc3ncccc3-c3ncnc4nc[nH]c34)ccc2F)cc(C(F)(F)F)c1"
label_class = "F"

[[record]]
compound = "CC1=C(C(=O)n2c3ccccc3c3ccccc32)C(c2cccc([N+](=O)[O-])c2)C(C(=O)n2c3ccccc3c3ccccc32)=C(C)N1"
label_class = "F"

[[record]]
compound = "O=C(CCCCCCCCC(=O)N/N=C\\c1cc(Cl)ccc1O)N/N=C\\c1cc(Cl)ccc1O"
label_class = "F"

[[record]]
compound = "Cc1ccc(N=Nc2c(N)nn(-c3ccccc3)c2N)cc1"
label_class = "T"

